FYI, the data here is from patent US20260256789A1.

Measured IC50 by item
test.system: KRAS G12C (GMPPNP-loaded) and cRAF Ras-binding domain (Homo sapiens, UniProt P01116, C118S/C51S/C80L/G12C)
Construct: truncated version comprising amino acids 1-169
Sequence (P01116 1-169 isoform P01116-2 G12C/C51S/C80L/C118S): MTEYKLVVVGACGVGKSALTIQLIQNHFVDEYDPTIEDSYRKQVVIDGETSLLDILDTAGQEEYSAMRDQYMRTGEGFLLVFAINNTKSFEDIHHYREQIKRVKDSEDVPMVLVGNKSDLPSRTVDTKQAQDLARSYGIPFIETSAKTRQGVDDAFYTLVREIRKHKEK
assay.info: Inhibition of KRAS G12C and cRAF binding (AlphaScreen)
assay.setup: KRAS G12C preloaded with GTP analogue GMPPNP, 2 hours preincubation

Reference set, count: 5
> print(dat)
                           structure.string  measurement.type  recorded.measurement
1  Cc1cc(N)nc(-c2ncc3c(N(C)[C@@H]4CCN(C(=O)/C=C/c5nc(C(C)C)no5)C4)nc(OC[C@@]45CCCN4C[C@H](F)C5)nc3c2F)c1C              IC50          10 to 100 nM
2  C=CC(=O)N1CC[C@@H](N(C)c2nc(OC[C@@]34CCCN3C[C@H](F)C4)nc3c(F)c(-c4ncn5ccccc45)ncc23)C1              IC50              ≥ 500 nM
3  C=CC(=O)N1CC[C@@H](N(C)c2nc(OC[C@@]34CCCN3C[C@H](F)C4)nc3c(F)c(-c4ccc(O)cc4C4CC4)ncc23)C1              IC50              ≥ 500 nM
4  C=CC(=O)N1CC(CN(C)c2nc(OC[C@@]34CCCN3C[C@H](F)C4)nc3c(F)c(-c4nc(N)cc(C)c4C4CC4)ncc23)C1              IC50              ≥ 500 nM
5  C=CC(=O)N1CC[C@@H](N(C)c2nc(OC[C@@]34CCCN3C[C@H](F)C4)nc3c(F)c(-c4cncc5ccc(F)c(F)c45)ncc23)C1              IC50              ≥ 500 nM

Value of measured IC50 for the entry CN(CC1CN(C(=O)/C=C/CN2CCOCC2)C1)c1nc(OC[C@@]23CCCN2C[C@H](F)C3)nc2c(F)c(-c3nc(N)cc4cccc(Cl)c34)ncc12 : 10 to 100 nM

Value of measured IC50 for the entry Cc1noc(/C=C/C(=O)N2CC[C@@H](N(C)c3nc(OC[C@@]45CCCN4C[C@H](F)C5)nc4c(F)c(-c5nc(N)ccc5C(F)(F)F)ncc34)C2)n1 : 10 to 100 nM

Value of measured IC50 for the entry CC(C)c1noc(/C=C/C(=O)N2CC[C@@H](N(C)c3nc(OC[C@@]45CCCN4C[C@H](F)C5)nc4c(F)c(-c5nc(N)ccc5OC(F)F)ncc34)C2)n1 : 10 to 100 nM

Value of measured IC50 for the entry CN(C)CC#CC(=O)N1CC(CN(C)c2nc(OC[C@@]34CCCN3C[C@H](F)C4)nc3c(F)c(-c4nc(N)cc5cccc(Cl)c45)ncc23)C1 : 10 to 100 nM

Value of measured IC50 for the entry C=CC(=O)N1CC[C@@H](N(C)c2nc(OC[C@@]34CCCN3C[C@H](F)C4)nc3c(F)c(-c4c(O)cccc4Cl)ncc23)C1 : ≥ 500 nM

Value of measured IC50 for the entry C=CC(=O)N1CC(CN(C)c2nc(OC[C@@]34CCCN3C[C@H](F)C4)nc3c(F)c(-c4nc(N)ccc4C(F)(F)F)ncc23)C1 : 100 to 500 nM

Value of measured IC50 for the entry Cc1noc(/C=C/C(=O)N2CC[C@@H](N(C)c3nc(OC[C@@]45CCCN4C[C@H](F)C5)nc4c3CCN(c3nc(N)cc(C)c3C(F)(F)F)C4)C2)n1 : ≥ 500 nM
